# measurementNotes: Inhibition of PKC by radioactive flashplate assay
pIC50: −log10 of the molar value.
valueType: pIC50

1) O=C(O)c1ccc(Nc2ncc3c(n2)-c2ccc(Cl)cc2C(c2c(F)cccc2F)=NC3)cc1 [MLN-8054] | < 4.00

* * *

# measurementNotes: Plasma concentration in human HCT116 cells xenografted in mouse at 30 mg/kg, po after 24 hrs
# Type: ADME, organism-based, HCT-116
# Parameters: dose 30 mg/kg, route oral
valueType: concentration at 24 h

1) O=C(O)c1ccc(Nc2ncc3c(n2)-c2ccc(Cl)cc2C(c2c(F)cccc2F)=NC3)cc1 | 400 nM
